Values were extracted from the supplement of paper PMC9112550.

# System: Escherichia coli TOP10
# experiment_notes: shrunken log2 fold change of peptide-encoding DNA abundance (4.5 h post-induction vs induction); higher = less antimicrobial activity (less host growth inhibition)
# measurement_context: time post-induction: 4.5 h; library: site-saturation at positions 5, 18, 19, 20
// map shrunken log2 fold change to label using LOW = under -0.2, MID = from -0.2 up to 0.008, HIGH = 0.008 and over

| residue_sequence | class |
| --- | --- |
| RRIRGRPPRLPRPRPRPRPPPRP | HIGH |
| RRIRDRPPRLPRPRPRPRWCPRP | HIGH |
| RRIRCRPPRLPRPRPRPFYMPRP | LOW |
| RRIRIRPPRLPRPRPRPNHIPRP | LOW |
| RRIRERPPRLPRPRPRPMKVPRP | MID |
| RRIRFRPPRLPRPRPRPQEYPRP | LOW |
| RRIRERPPRLPRPRPRPTHIPRP | LOW |
| RRIRCRPPRLPRPRPRPCARPRP | HIGH |
| RRIRNRPPRLPRPRPRPFHPPRP | HIGH |
| RRIRYRPPRLPRPRPRPSRDPRP | HIGH |
| RRIRTRPPRLPRPRPRPMPCPRP | HIGH |
| RRIRLRPPRLPRPRPRPVDPPRP | MID |
| RRIRMRPPRLPRPRPRPSCPPRP | MID |
| RRIRMRPPRLPRPRPRPQDNPRP | HIGH |
| RRIRMRPPRLPRPRPRPNIYPRP | MID |
| RRIRDRPPRLPRPRPRPDWDPRP | HIGH |
| RRIRVRPPRLPRPRPRPNSHPRP | LOW |
| RRIRLRPPRLPRPRPRPMIRPRP | MID |
| RRIRMRPPRLPRPRPRPSNKPRP | HIGH |
| RRIRERPPRLPRPRPRPIHNPRP | LOW |
| RRIRGRPPRLPRPRPRPGKHPRP | HIGH |
| RRIRSRPPRLPRPRPRPREMPRP | HIGH |
| RRIRQRPPRLPRPRPRPYNWPRP | MID |
| RRIRNRPPRLPRPRPRPHHTPRP | LOW |
| RRIRERPPRLPRPRPRPFLYPRP | LOW |
| RRIRIRPPRLPRPRPRPEEEPRP | MID |
| RRIRQRPPRLPRPRPRPCLVPRP | LOW |
| RRIRTRPPRLPRPRPRPTHGPRP | HIGH |
| RRIRCRPPRLPRPRPRPIGMPRP | MID |
| RRIRARPPRLPRPRPRPAKYPRP | MID |
| RRIRLRPPRLPRPRPRPFCGPRP | MID |
| RRIRIRPPRLPRPRPRPARIPRP | MID |
| RRIRNRPPRLPRPRPRPHSVPRP | MID |
| RRIRFRPPRLPRPRPRPRCIPRP | LOW |
| RRIRPRPPRLPRPRPRPNSTPRP | LOW |
| RRIRYRPPRLPRPRPRPEMLPRP | MID |
| RRIRFRPPRLPRPRPRPCDYPRP | MID |
| RRIRIRPPRLPRPRPRPHKTPRP | MID |
| RRIRSRPPRLPRPRPRPWKDPRP | MID |
| RRIRMRPPRLPRPRPRPKSFPRP | MID |
| RRIRLRPPRLPRPRPRPFHDPRP | LOW |
| RRIRRRPPRLPRPRPRPFCNPRP | LOW |
| RRIRVRPPRLPRPRPRPCVEPRP | HIGH |
| RRIRRRPPRLPRPRPRPPNDPRP | HIGH |
| RRIRGRPPRLPRPRPRPSLIPRP | HIGH |
| RRIRPRPPRLPRPRPRPAKCPRP | MID |
| RRIRCRPPRLPRPRPRPWRQPRP | MID |
| RRIRWRPPRLPRPRPRPQIFPRP | MID |
| RRIRARPPRLPRPRPRPKDIPRP | MID |
| RRIRYRPPRLPRPRPRPIMGPRP | MID |
| RRIRMRPPRLPRPRPRPAIAPRP | HIGH |
| RRIRYRPPRLPRPRPRPHNHPRP | LOW |
| RRIRFRPPRLPRPRPRPETWPRP | HIGH |
| RRIRLRPPRLPRPRPRPNQHPRP | LOW |
| RRIRARPPRLPRPRPRPRYRPRP | HIGH |
| RRIRSRPPRLPRPRPRPAGCPRP | HIGH |
| RRIRYRPPRLPRPRPRPQTLPRP | MID |
| RRIRHRPPRLPRPRPRPPMSPRP | HIGH |
| RRIRTRPPRLPRPRPRPEYIPRP | HIGH |
| RRIRLRPPRLPRPRPRPSLNPRP | LOW |
| RRIRMRPPRLPRPRPRPSQIPRP | MID |
| RRIRVRPPRLPRPRPRPEYNPRP | MID |

---

# Tested on: Escherichia coli TOP10
# experiment_notes: shrunken log2 fold change of peptide-encoding DNA abundance (4.5 h post-induction vs induction); higher = less antimicrobial activity (less host growth inhibition)
# measurement_context: time post-induction: 4.5 h; library: site-saturation at positions 5, 18, 19, 20
Mark False for shrunken log2 fold change values under 0.1, and True for everything at or above.

| residue_sequence | class |
| --- | --- |
| RRIRKRPPRLPRPRPRPVWFPRP | True |
| RRIRQRPPRLPRPRPRPTANPRP | True |
| RRIRHRPPRLPRPRPRPYQKPRP | False |
| RRIRNRPPRLPRPRPRPHSWPRP | False |
| RRIRQRPPRLPRPRPRPHCDPRP | False |
| RRIRERPPRLPRPRPRPCWYPRP | False |
| RRIRHRPPRLPRPRPRPPIRPRP | True |
| RRIRHRPPRLPRPRPRPFEFPRP | False |

---

# Tested on: Escherichia coli TOP10
# experiment_notes: shrunken log2 fold change of peptide-encoding DNA abundance (4.5 h post-induction vs induction); higher = less antimicrobial activity (less host growth inhibition)
# measurement_context: time post-induction: 4.5 h; library: site-saturation at positions 5, 18, 19, 20
Rule: shrunken log2 fold change of 0.1 or more gives criterion met; anything lower gives criterion not met.

| residue_sequence | class |
| --- | --- |
| RRIRQRPPRLPRPRPRPRYNPRP | criterion not met |
| RRIRHRPPRLPRPRPRPMLYPRP | criterion not met |
| RRIRCRPPRLPRPRPRPHSEPRP | criterion not met |
| RRIRHRPPRLPRPRPRPNAPPRP | criterion not met |
| RRIRGRPPRLPRPRPRPHKFPRP | criterion met |
| RRIRRRPPRLPRPRPRPKNGPRP | criterion met |
| RRIRKRPPRLPRPRPRPDRQPRP | criterion met |
| RRIRRRPPRLPRPRPRPGIIPRP | criterion not met |
| RRIRERPPRLPRPRPRPPSVPRP | criterion not met |
| RRIRGRPPRLPRPRPRPTGYPRP | criterion met |
| RRIRRRPPRLPRPRPRPQYYPRP | criterion not met |
| RRIRWRPPRLPRPRPRPMEVPRP | criterion not met |
| RRIRLRPPRLPRPRPRPCLFPRP | criterion not met |
| RRIRTRPPRLPRPRPRPVTCPRP | criterion not met |
| RRIRQRPPRLPRPRPRPGVPPRP | criterion met |
| RRIRQRPPRLPRPRPRPEKAPRP | criterion not met |
| RRIRQRPPRLPRPRPRPPFAPRP | criterion met |
| RRIRMRPPRLPRPRPRPGFSPRP | criterion met |
| RRIRVRPPRLPRPRPRPCCTPRP | criterion not met |
| RRIRSRPPRLPRPRPRPIPWPRP | criterion not met |
| RRIRLRPPRLPRPRPRPVWGPRP | criterion not met |
| RRIRWRPPRLPRPRPRPHGLPRP | criterion not met |
| RRIRKRPPRLPRPRPRPGTWPRP | criterion met |
| RRIRSRPPRLPRPRPRPTHYPRP | criterion not met |
| RRIRNRPPRLPRPRPRPHILPRP | criterion not met |
| RRIRMRPPRLPRPRPRPESSPRP | criterion met |
| RRIRTRPPRLPRPRPRPRLMPRP | criterion met |
| RRIRARPPRLPRPRPRPMKCPRP | criterion not met |
| RRIRPRPPRLPRPRPRPFKMPRP | criterion not met |
| RRIRYRPPRLPRPRPRPCHHPRP | criterion not met |
| RRIRTRPPRLPRPRPRPGIAPRP | criterion not met |
| RRIRQRPPRLPRPRPRPPFLPRP | criterion met |

---

# Test system: Escherichia coli TOP10;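 further: peptides expressed intracellularly from a pBAD plasmid library in pooled LB shake-flask culture, induced with 0.3% L-arabinose, DNA abundance read by NGS, three biological replicates, DESeq2 with apeglm shrinkage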
# experiment_notes: shrunken log2 fold change of peptide-encoding DNA abundance (4.5 h post-induction vs induction); higher = less antimicrobial activity (less host growth inhibition)
# measurement_context: time post-induction: 4.5 h; library: site-saturation at positions 5, 18, 19, 20
readout_label: shrunken log2 fold change

| residue_sequence | numeric_result |
| --- | --- |
| RRIRDRPPRLPRPRPRPYKGPRP | -0.00133 |
| RRIRFRPPRLPRPRPRPVFGPRP | -0.17 |
| RRIRKRPPRLPRPRPRPWKCPRP | -0.0018 |
| RRIRIRPPRLPRPRPRPIAGPRP | -0.017 |
| RRIRQRPPRLPRPRPRPCFVPRP | -0.0859 |
| RRIRKRPPRLPRPRPRPCQPPRP | 0.227 |
| RRIRSRPPRLPRPRPRPHMLPRP | -0.104 |
| RRIRGRPPRLPRPRPRPRCYPRP | 0.555 |
| RRIRNRPPRLPRPRPRPIGMPRP | -0.0748 |
| RRIRERPPRLPRPRPRPTYWPRP | -0.219 |
| RRIRPRPPRLPRPRPRPAEGPRP | 0.394 |
| RRIRERPPRLPRPRPRPMKYPRP | 0.0847 |
| RRIRERPPRLPRPRPRPCRHPRP | -0.00171 |
| RRIRERPPRLPRPRPRPNQQPRP | -0.112 |
| RRIRCRPPRLPRPRPRPACFPRP | 0.0497 |
| RRIRERPPRLPRPRPRPTGKPRP | -0.0509 |
| RRIRTRPPRLPRPRPRPGDAPRP | 0.206 |
| RRIRERPPRLPRPRPRPAAMPRP | 0.102 |
| RRIRYRPPRLPRPRPRPDQTPRP | 0.00902 |
| RRIRVRPPRLPRPRPRPFQSPRP | -0.00568 |
| RRIRSRPPRLPRPRPRPFGEPRP | -0.066 |
| RRIRPRPPRLPRPRPRPHKKPRP | 0.165 |
| RRIRVRPPRLPRPRPRPARSPRP | -0.024 |
| RRIRQRPPRLPRPRPRPKKWPRP | -0.0403 |
| RRIRQRPPRLPRPRPRPWPPPRP | 0.16 |
| RRIRIRPPRLPRPRPRPCALPRP | 0.00316 |
| RRIRLRPPRLPRPRPRPTDDPRP | -0.0495 |
| RRIRYRPPRLPRPRPRPLFFPRP | -0.751 |
| RRIRVRPPRLPRPRPRPMEQPRP | -0.033 |
| RRIRPRPPRLPRPRPRPTMDPRP | -0.125 |
| RRIRYRPPRLPRPRPRPKNNPRP | -1.02 |
| RRIRGRPPRLPRPRPRPIGQPRP | 0.0805 |
| RRIRDRPPRLPRPRPRPMTCPRP | 0.0184 |
| RRIRGRPPRLPRPRPRPRLHPRP | 0.653 |
| RRIRTRPPRLPRPRPRPIHWPRP | 0.0444 |
| RRIRCRPPRLPRPRPRPAHEPRP | 0.238 |
| RRIRMRPPRLPRPRPRPKKKPRP | 1.61 |
| RRIRARPPRLPRPRPRPNDIPRP | -0.448 |
| RRIRKRPPRLPRPRPRPGDNPRP | 0.046 |
| RRIRCRPPRLPRPRPRPMMPPRP | -0.11 |
| RRIRIRPPRLPRPRPRPIYVPRP | -0.24 |
| RRIRGRPPRLPRPRPRPREFPRP | 1.07 |
| RRIRCRPPRLPRPRPRPTGNPRP | 0.048 |
| RRIRMRPPRLPRPRPRPDIIPRP | 1.42 |
| RRIRRRPPRLPRPRPRPRIWPRP | 0.666 |
| RRIRKRPPRLPRPRPRPKEWPRP | 0.222 |
| RRIRLRPPRLPRPRPRPSQGPRP | 0.535 |
| RRIRVRPPRLPRPRPRPQGTPRP | -0.289 |
| RRIRNRPPRLPRPRPRPKGLPRP | -0.00227 |
| RRIRCRPPRLPRPRPRPRGHPRP | 0.071 |
| RRIRRRPPRLPRPRPRPYLQPRP | -0.548 |
| RRIRVRPPRLPRPRPRPSSRPRP | -0.231 |
| RRIRSRPPRLPRPRPRPDHAPRP | 0.0838 |
| RRIRGRPPRLPRPRPRPETCPRP | 0.613 |
| RRIRDRPPRLPRPRPRPQFNPRP | -0.195 |
| RRIRKRPPRLPRPRPRPEEWPRP | -0.0212 |
| RRIRGRPPRLPRPRPRPPMAPRP | 0.94 |
| RRIRMRPPRLPRPRPRPMGSPRP | -0.0199 |
| RRIRHRPPRLPRPRPRPRDGPRP | 0.84 |
| RRIRFRPPRLPRPRPRPPIFPRP | -0.0711 |
| RRIRMRPPRLPRPRPRPGCLPRP | 0.503 |
| RRIRWRPPRLPRPRPRPCSEPRP | -0.206 |
| RRIRFRPPRLPRPRPRPQSPPRP | -0.13 |
